What PDI was measured for each of the following?
Assay: Stability of DNPs by DLS after storage at 5° C.
Type: physicochemical
Details: after 62 days at 5° C.; IAJD 4.0 mg/mL + Luc-mRNA 0.1 mg/mL, acetate buffer
// keep it numeric: no unit symbol after the value

Sure, the documented PDI for CCCCCCCCCCCCOc1cc(COC(=O)CCCN2CCN(CCO)CC2)cc(OCCCCCCCCCCC)c1 is 0.240

Sure, the documented PDI for CCCCCCCCCCCCCOc1cc(COC(=O)CCCN2CCN(C)CC2)cc(OCCCCCCCCCCC)c1 is 0.272

Sure, the documented PDI for CCCCCCCCCCCCCCCOc1cc(COC(=O)CCCN2CCN(CCO)CC2)cc(OCCCCCCCCCCC)c1 is 0.489

Sure, the documented PDI for CCCCCCCCCCCOc1cc(COC(=O)CCCN2CCN(CCO)CC2)cc(OCC(CC)CCCC)c1 (stereo not drawn) is 0.282

Sure, the documented PDI for CCCCCCCCCCCOc1cc(COC(=O)CCCN2CCN(CCO)CC2)cc(OCCCCCCCCC)c1 is 0.346

Sure, the documented PDI for CCCCCCCCCCCCCCCCCOc1cc(COC(=O)CCCN2CCN(CCO)CC2)cc(OCCCCCCCCCCC)c1 is 0.248
